This section presents binders with their documented other values.
Molecular target: SARS-CoV-2 RBD (residues Arg319–Phe541) (SARS-CoV-2, UniProt P0DTC2)
Test: cell-based or functional assay

binder	other (%)
P2B-1A1 (full-length IgG) (antibody, V domains shown) VH: QVQLQESGPGLVKPSETLSLTCTVSGGSISSYYWSWIRQPPGKGLEWIGYIYYSGSTNYNPSLKSRVTISVDTSKKQFSLKLSSVTAADTAVYYCARLERDWPLDAFDIWGQGTMVTVSS VL: QSALTQPASVSGSPGQSITISCTGTSSDVGGYNYVSWYQQHPGKAPKFMIYDVSKRPSGVSNRFSGSKSGNTASLTISGLQAEDEADYYCSSYTSNNTFAFGGGTKLTVL	-9.7
P5A-1B8 (full-length IgG) (antibody, V domains shown) VH: EVQLVESGGGLIQPGGSLRLSCAASGFTVSSNYMSWVRQAPGKGLEWVSVIYPGGSTFYADSVKGRFTISRDNSKNTLYLQMNSLRAEDTAVYYCARETLAFDYWGQGTLVTVSS VL: DIQLTQSPSFLSASVGDRVTITCRASQGISSYLAWYQQKPGKAPKLLIYAASTLQSGVPSRFSGSGSGTEFTLTISSLQPEDFATYYCQQLNSYPPAFGGGTKVEIK	79.6
P2B-1A10 (full-length IgG) (antibody, V domains shown) VH: EVQLVESGGGLIQPGGSLRLSCAASGFTVSSNYMSWVRQAPGKGLEWVSVIYSGGSTYYADSVKGRFTISRDNSKNTLYLQMNSLRAEDTAVYYCAREGPKSITGTAFDIWGQGTIVTVSS VL: DIQMTQSPSSLSASVGDRVTITCQASQDISNYFNWYQQKPGKAPKLLIYDASNLETGVPSRFSGSGSGTDFTFTISSLQPEDIATYYCQQYDNLPMYTFGQGTKLEIK	81.8
P5A-2G9 (full-length IgG) (antibody, V domains shown) VH: QVQLVESGGGVVQPGRSLRLSCAASGFTFSSYGMHWVRQAPGKGLEWVAVIWYDGSNKYYADSVKGRFTISRDNSKNTLYLQMNSLRAEDTAVYYCARWFHTGGYFDYWGQGTLVTVSS VL: QPVLTQPPSSSASPGESARLTCTLPSDINVSSYNIYWYQQKPGSPPRYLLYYYSDSDKGQGSGVPSRFSGSKDASANTGILLISGLQSEDEADYYCMIWPSNALYVFGTGTKVTVL	84.9
P5A-2G7 (full-length IgG) (antibody, V domains shown) VH: QVQLQESGPGLVKPSETLSLTCTVSGDSVSSGSYYWSWIRQPPGKGLEWIGYIYYSGSTNYNPSLKSRVTISVDTSKNQFSLKLSSVTAADTAVYYCARERCYYGSGRAPRCVWFDPWGQGTLVTVSS VL: QSALTQPASVSGSPGQSITISCTGTSSDVGGYNYVSWYQQHPGKAPKLMIYDVSNRPSGVSNRFSGSKSGNTASLTISGLQAEDEADYYCSSYTSSSTLVVFGGGTKLTVL	57.2
